# Tested on: SNB-19 CNS
# method: NCI-60 one-dose screen, 48 h (100 = growth as untreated, 0 = no growth, -100 = all killed)
# setup conditions: 10 µM unless noted
About 83,000 compounds went through this panel and 20% of them were active in at least one assay; those are over-represented in the sample as a whole.
Entries annotated with measured growth
readout kind: growth (%)

compound	readout kind	unit abbrev	numeric readout
Oc1ccc(-c2cnc(-c3ccccc3)[nH]2)c(O)c1	growth	%	98
COc1ccc2[nH]c(C(=O)OCc3ccc4cccc(O)c4n3)cc2c1	growth	%	50.8
Brc1ccccc1Cn1c(-c2cncs2)nc2ccccc21	growth	%	84.6
CC(OC(=O)Nc1cccc(Cl)c1)C(=O)O (stereo not given)	growth	%	96.6
NC(N)=N/N=C/c1ccccc1	growth	%	92.5
Cc1nc2c(-c3cnc(N)nc3)nc(N3CCOCC3)nc2n1C(C)C	growth	%	10.6
COC1=CC(c2ccc[nH]2)=N/C1=C\c1[nH]c(C)c(C(=O)CCCCCCCCC(=O)O[C@H]2CC[C@H]3C4CCc5cc(O)ccc5C4CC[C@]23C)c1C (stereo not given in full)	growth	%	56.2
Fc1[nH]nc2ccc([C@@H]3Nc4ccc5[nH]ncc5c4[C@H]4C5CCC(C5)[C@@H]34)cc12 (stereo not given in full)	growth	%	36.6
COc1cccc2nc(Nc3cccc(NC(=O)c4ccc(N5CCN(C)CC5)c(C(F)(F)F)c4)c3)ccc12	growth	%	48.4
COc1cc(Cn2c(-c3ccccc3)cc3c2-c2oncc2CC3)cc(OC)c1OC	growth	%	44.5
Cc1n(Cc2ccc3ccccc3n2)cc[n+]1Cc1ccc2ccccc2c1	growth	%	7.14
CC(C)[C@H](CN)NC[C@H](C)NS(=O)(=O)c1ccc(C(C)(C)C)cc1	growth	%	111
O=C(O)c1ccccc1N=Cc1ccccc1	growth	%	112
CCC(=O)NC(O)C(Cl)(Cl)C(C)Cl (stereo not given)	growth	%	98.4
C=CCn1c(C)nc2cc(Nc3nc(Nc4ccc5nc(C)n(CC=C)c5c4)nc4ccccc34)ccc21	growth	%	100
O=C(Nc1ccccc1Cl)Oc1ccc2ccccc2c1	growth	%	98.3
C1=C\CCCCN2CC[C@H]3[C@H](CCCC/C=C\CCCN4C[C@@H](CCCCC/1)C[C@@H]3C4)C2	growth	%	106
Cc1ccc2oc(=O)cc(-c3nc4ccc([N+](=O)[O-])cc4[nH]3)c2c1	growth	%	61.4
COc1cc(C2C=C(C)N=C3SC=NN32)cc(OC)c1OC (stereo not given)	growth	%	95.9
CCOC(=O)c1ccc(N(CCC(=O)O)C(C)=O)cc1	growth	%	106
CC(C)c1[nH]ncc1-c1nc2ccc3[nH]ncc3c2c2c1CCCC2	growth	%	40.4
O=C(Nc1ccc(Oc2ccc(Nc3nc4ccccc4s3)cc2)cc1)Nc1ccc(Cl)c(C(F)(F)F)c1	growth	%	22.5
CCCCCCCCCCC(C(O)c1ccccc1)N1CCCCC1 (stereo not given)	growth	%	43.7
COc1ccc(/C(=C\c2cc(OC)c(OC)c(OC)c2)C(=O)Nc2nc3ccc(Cl)cc3s2)cc1	growth	%	105
CN(C)CCOc1nc2c3cccnc3cc(-c3cccc(Cl)c3)c2c2ncccc12	growth	%	26.4
CN(C)CCOc1nc2c3ccncc3cc(-c3cccc(Cl)c3)c2c2cnccc12	growth	%	28.4
COc1cc(/C=C2\C(=O)Nc3ccc(N(C)C)cc32)cc(OC)c1OC	growth	%	36.2
CC(C)OC(=O)c1ccc([N+](=O)[O-])cc1	growth	%	109
COc1ccc(C2=NN(C=O)C(c3ccc(OS(=O)(=O)c4ccc(C)cc4)c(OC)c3)C2)cc1 (stereo not given)	growth	%	62.5
C#CCNC(=S)N/N=C(\C)c1ccccn1	growth	%	38.8
